tested on: HeLa Kyoto; test: melting temperature (median over replicates), in situ; higher = more thermally stable; settings: cell cycle stage: G1/S
attributeMeasured: melting temperature (°C)
Could you give me the number in °C? Just the number is fine.

residueString: MGNTLTCCVSPNASPKLGRRAGSAELYCASDIYEAVSGDAVAVAPAVVEPAELDFGEGEGHHLQHISDREMPEDLALESNPSDHPRASTIFLSKSQTDVREKRKSNHLNHVSPGQLTKKYSSCSTIFLDDSTVSQPNLRTTVKCVTLAIYYHIKNRDANRSLDIFDERSHPLTREKVPEEYFKHDPEHKFIYRFVRTLFSAAQLTAECAIVTLVYLERLLTYAEIDICPTNWKRIVLGAILLASKVWDDQAVWNVDYCQILKDITVEDMNEMERHFLELLQFNINVPASVYAKYYFDLRSLADDNNLNFLFAPLSKERAQNLEAISRLCEDKDLCRAAMRRSFSADNFIGIQRSKAILS [CCNYL1]
resultUnits: °C
valueReported: 48.9
--
residueString: MTQQPLRGVTSLRFNQDQSCFCCAMETGVRIYNVEPLMEKGHLDHEQVGSMGLVEMLHRSNLLALVGGGSSPKFSEISVLIWDDAREGKDSKEKLVLEFTFTKPVLSVRMRHDKIVIVLKNRIYVYSFPDNPRKLFEFDTRDNPKGLCDLCPSLEKQLLVFPGHKCGSLQLVDLASTKPGTSSAPFTINAHQSDIACVSLNQPGTVVASASQKGTLIRLFDTQSKEKLVELRRGTDPATLYCINFSHDSSFLCASSDKGTVHIFALKDTRLNRRSALARVGKVGPMIGQYVDSQWSLASFTVPAESACICAFGRNTSKNVNSVIAICVDGTFHKYVFTPDGNCNREAFDVYLDICDDDDF [WDR45]
resultUnits: °C
valueReported: 53.4
--
residueString: MRFLAATFLLLALSTAAQAEPVQFKDCGSVDGVIKEVNVSPCPTQPCQLSKGQSYSVNVTFTSNIQSKSSKAVVHGILMGVPVPFPIPEPDGCKSGINCPIQKDKTYSYLNKLPVKSEYPSIKLVVEWQLQDDKNQSLFCWEIPVQIVSHL [NPC2]
resultUnits: °C
valueReported: 58.9

Query sequence follows.
Ask: What value of measured melting temperature is listed for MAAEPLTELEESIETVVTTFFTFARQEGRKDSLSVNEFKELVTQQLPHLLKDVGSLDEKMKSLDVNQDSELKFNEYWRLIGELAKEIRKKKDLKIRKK [S100A13] ?
Reply: 53.4

====

tested on: HeLa Kyoto; assay: melting temperature (median over replicates), in situ; higher = more thermally stable; settings: cell cycle stage: G1/S
# key: entry, value: melting temperature
Form entry: value (°C) — number only.

Guide cases for melting temperature, answers given:
residueString: MATSRYEPVAEIGVGAYGTVYKARDPHSGHFVALKSVRVPNGGGGGGGLPISTVREVALLRRLEAFEHPNVVRLMDVCATSRTDREIKVTLVFEHVDQDLRTYLDKAPPPGLPAETIKDLMRQFLRGLDFLHANCIVHRDLKPENILVTSGGTVKLADFGLARIYSYQMALTPVVVTLWYRAPEVLLQSTYATPVDMWSVGCIFAEMFRRKPLFCGNSEADQLGKIFDLIGLPPEDDWPRDVSLPRGAFPPRGPRPVQSVVPEMEESGAQLLLEMLTFNPHKRISAFRALQHSYLHKDEGNPE [CDK4]
resultUnits: °C
melting temperature: 52.7

residueString: MAGAGSAAVSGAGTPVAGPTGRDLFAEGLLEFLRPAVQQLDSHVHAVRESQVELREQIDNLATELCRINEDQKVALDLDPYVKKLLNARRRVVLVNNILQNAQERLRRLNHSVAKETARRRAMLDSGIYPPGSPGK [SNAPIN]
resultUnits: °C
melting temperature: 53

residueString: MSELPGDVRAFLREHPSLRLQTDARKVRCILTGHELPCRLPELQVYTRGKKYQRLVRASPAFDYAEFEPHIVPSTKNPHQLFCKLTLRHINKCPEHVLRHTQGRRYQRALCKYEECQKQGVEYVPACLVHRRRRREDQMDGDGPRPREAFWEPTSSDEGGAASDDSMTDLYPPELFTRKDLGSTEDGDGTDDFLTDKEDEKAKPPREKATDEGRRETTVYRGLVQKRGKKQLGSLKKKFKSHHRKPKSFSSCKQPG [SURF2]
resultUnits: °C
melting temperature: 50.7

Proceed to the following item.
Ask: What does the data say about its melting temperature? Entry: MPEEGSGCSVRRRPYGCVLRAALVPLVAGLVICLVVCIQRFAQAQQQLPLESLGWDVAELQLNHTGPQQDPRLYWQGGPALGRSFLHGPELDKGQLRIHRDGIYMVHIQVTLAICSSTTASRHHPTTLAVGICSPASRSISLLRLSFHQGCTIASQRLTPLARGDTLCTNLTGTLLPSRNTDETFFGVQWVRP [CD70]
Reply: 54.9

====

system: HeLa Kyoto; assay: thermal stability score vs G1/S (z-score of summed log2 fold changes over temperatures); higher = more thermally stable than in G1/S; conditions: cell cycle stage: early G1 (4.5 h after nocodazole release)
attributeMeasured: thermal stability score
Please respond with just the number, no unit label.

Ask: Request body: readout thermal stability score, system HeLa Kyoto, query MAARRGALIVLEGVDRAGKSTQSRKLVEALCAAGHRAELLRFPERSTEIGKLLSSYLQKKSDVEDHSVHLLFSANRWEQVPLIKEKLSQGVTLVVDRYAFSGVAFTGAKENFSLDWCKQPDVGLPKPDLVLFLQLQLADAAKRGAFGHERYENGAFQERALRCFHQLMKDTTLNWKMVDASKSIEAVHEDIRVLSEDAIRTATEKPLGELWK [DTYMK] . Return the value.
Reply: -8.56

Ask: Can you look up thermal stability score on HeLa Kyoto for MAVPGCNKDSVRAGCKKCGYPGHLTFECRNFLRVDPKRDIVLDVSSTSSEDSDEENEELNKLQALQEKRINEEEEKKKEKSKEKIKLKKKRKRSYSSSSTEEDTSKQKKQKYQKKEKKKEKKSKSKKGKHHKKEKKKRKKEKHSSTPNSSEFSRK [SREK1IP1] ?
Reply: -0.6

====

system: HeLa Kyoto; assay: thermal stability score vs G1/S (z-score of summed log2 fold changes over temperatures); higher = more thermally stable than in G1/S; details: cell cycle stage: early G1 (4.5 h after nocodazole release)
Recorded thermal stability score by entry
Hey, just send me the number, nothing else.

These recorded examples may help you get a feel for the data.
residueString: MEADASVDMFSKVLEHQLLQTTKLVEEHLDSEIQKLDQMDEDELERLKEKRLQALRKAQQQKQEWLSKGHGEYREIPSERDFFQEVKESENVVCHFYRDSTFRCKILDRHLAILSKKHLETKFLKLNVEKAPFLCERLHIKVIPTLALLKDGKTQDYVVGFTDLGNTDDFTTETLEWRLGSSDILNYSGNLMEPPFQNQKKFGTNFTKLEKKTIRGKKYDSDSDDD [TXNDC9]
thermal stability score: 1

residueString: MADPWQECMDYAVTLARQAGEVVCEAIKNEMNVMLKSSPVDLVTATDQKVEKMLISSIKEKYPSHSFIGEESVAAGEKSILTDNPTWIIDPIDGTTNFVHRFPFVAVSIGFAVNKKIEFGVVYSCVEGKMYTARKGKGAFCNGQKLQVSQQEDITKSLLVTELGSSRTPETVRMVLSNMEKLFCIPVHGIRSVGTAAVNMCLVATGGADAYYEMGIHCWDVAGAGIIVTEAGGVLMDVTGGPFDLMSRRVIAANNRILAERIAKEIQVIPLQRDDED [IMPA1]
thermal stability score: -1.12

residueString: MAAVDIRDNLLGISWVDSSWIPILNSGSVLDYFSERSNPFYDRTCNNEVVKMQRLTLEHLNQMVGIEYILLHAQEPILFIIRKQQRQSPAQVIPLADYYIIAGVIYQAPDLGSVINSRVLTAVHGIQSAFDEAMSYCRYHPSKGYWWHFKDHEEQDKVRPKAKRKEEPSSIFQRQRVDALLLDLRQKFPPKFVQLKPGEKPVPVDQTKKEAEPIPETVKPEEKETTKNVQQTVSAKGPPEKRMRLQ [MED6]
thermal stability score: -0.569

residueString: MSDEGSRGSRLPLALPPASQGCSSGGGGGGSSAGGSGNSRPPRNLQGLLQMAITAGSEEPDPPPEPMSEERRQWLQEAMSAAFRGQREEVEQMKSCLRVLSQPMPPTAGEAEQAADQQEREGALELLADLCENMDNAADFCQLSGMHLLVGRYLEAGAAGLRWRAAQLIGTCSQNVAAIQEQVLGLGALRKLLRLLDRDACDTVRVKALFAISCLVREQEAGLLQFLRLDGFSVLMRAMQQQVQKLKVKSAFLLQNLLVGHPEHKGTLCSMGMVQQLVALVRTEHSPFHEHVLGALCSLVTDFPQGVRECREPELGLEELLRHRCQLLQQHEEYQEELEFCEKLLQTCFSSPADDSMDR [HSPBP1]
thermal stability score: 0.863

Now turn to the next sequence.
Ask: # thermal stability score lookup, item MTSFRLALIQLQISSIKSDNVTRACSFIREAATQGAKIVSLPECFNSPYGAKYFPEYAEKIPGESTQKLSEVAKECSIYLIGGSIPEEDAGKLYNTCAVFGPDGTLLAKYRKIHLFDIDVPGKITFQESKTLSPGDSFSTFDTPYCRVGLGICYDMRFAELAQIYAQRGCQLLVYPGAFNLTTGPAHWELLQRSRAVDNQVYVATASPARDDKASYVAWGHSTVVNPWGEVLAKAGTEEAIVYSDIDLKKLAEIRQQIPVFRQKRSDLYAVEMKKP [NIT2]
Reply: -0.442
